experiment: Pharmacokinetic study in rats after oral administration of Semen Cuscutae extract (HPLC-MS/MS of plasma); format: in vivo, Sprague–Dawley rats; conditions: male, Sprague-Dawley; rat plasma, oral Semen Cuscutae extract 13 g/kg, n = 6
This section presents compounds with their documented AUC(0-inf) values.
Please format your answer as a value with the unit trailing.

O=c1c(O[C@@H]2O[C@H](CO)[C@@H](O)[C@H](O)[C@H]2O)c(-c2ccc(O)cc2)oc2cc(O)cc(O)c12 [Astragalin] = 441 ng·h/mL
O=C(O)/C=C/c1ccc(O)c(O)c1 [Caffeic acid] = 652 ng·h/mL
O=C(/C=C/c1ccc(O)c(O)c1)O[C@@H]1C[C@](O)(C(=O)O)C[C@@H](O)[C@H]1O [Chlorogenic acid] = 1000 ng·h/mL
COc1cc(-c2oc3cc(O)cc(O)c3c(=O)c2O[C@@H]2O[C@H](CO)[C@@H](O)[C@H](O)[C@H]2O)ccc1O [Isorhamnetin-3-O-glucoside] = 257 ng·h/mL
C[C@@H]1O[C@@H](OC[C@H]2O[C@@H](Oc3c(-c4ccc(O)c(O)c4)oc4cc(O)cc(O)c4c3=O)[C@H](O)[C@@H](O)[C@@H]2O)[C@H](O)[C@H](O)[C@H]1O [Rutin] = 4790 ng·h/mL

Next, consider the following compound.
QUERY: Give the measured AUC(0-inf) of O=c1c(O[C@@H]2O[C@H](CO)[C@H](O)[C@H](O)[C@H]2O)c(-c2ccc(O)c(O)c2)oc2cc(O)cc(O)c12 [Hyperoside] .
RESULT: 754 ng·h/mL
